test: Animal Experiment: serum concentration and bioavailability of OMP in rabbits (I.V., oral, rectum); assay type: in vivo, albino rabbits; conditions: rabbit, serum, po, 10 mg/kg, oral, 20 mg OMP per 2 kg, 4 hr, individual animals; read-out: serum concentration
Readout kind: concentration at 4 h (ng/mL)
Express it in ng/mL; write the number only.

Value of concentration at 4 h reported for the compound COc1ccc2[nH]c([S+]([O-])Cc3ncc(C)c(OC)c3C)nc2c1 (stereo not shown) [OMP, Omeprazole] is 410

###

experiment: Animal Experiment: serum concentration and bioavailability of OMP in rabbits (I.V., oral, rectum); type: in vivo, albino rabbits; details: rabbit, serum, iv, 10 mg/kg, I.V., 20 mg OMP per 2 kg, 180 min, individual animals; read-out: serum concentration
Readout kind: concentration at 3 h (ng/mL)
Number only, in ng/mL; omit the unit.

The compound listed as COc1ccc2[nH]c([S+]([O-])Cc3ncc(C)c(OC)c3C)nc2c1 (stereo not shown) has a reported concentration at 3 h of 2000
